As shown below, each of these compounds has a reported melting point value.
Property Measured: melting point (°C)

Compound	Endpoint Value
O=C(O)c1cccnc1Oc1ccccc1	181
CC(C)(C)OC(=O)N1CCC(N)CC1	46
CC12CCC3C(CCC4CC(C[N+](=O)[O-])=CCC43C)C1CCC2O (stereo unspecified)	129
O=C(O)C(O)c1ccc(F)c(F)c1 (stereo unspecified)	94
CN1CCCN(CC#N)CCN(CC#N)CCCN(CC#N)CC1	88
CC(=O)OCC(=O)[C@@]1(O)CC[C@H]2[C@@H]3CCC4=CC(=O)C=C[C@]4(C)[C@H]3[C@@H](O)C[C@@]21C	238
O=[N+]([O-])c1cc([N+](=O)[O-])c(/C(Cl)=C\c2ccccc2)cc1C(Cl)=Cc1ccccc1	146
N#Cc1c(F)cc(Br)cc1F	81
O=C(Cl)CCCCl	-47
COc1ccc(Nc2ccc(OC)cc2)cc1	102
CCCC(CCC)C(=O)O	125
COc1cc(C(=O)N2CCOCC2)cc(OC)c1OC	121
O=C1OC(=O)c2c(Br)c(Br)c(Br)c(Br)c21	275
COc1c(C(C)(C)C(C)C)c(OC(C)=O)c(OC(C)=O)c2ccccc12	145
Cc1ccc(-c2ccccc2)s1	47.5
